System: EMC-BAC-2
Assay: relative viability (nuclei count vs DMSO), 5 days (fraction); higher = more cells survive
Conditions: first compound 0.4 µM
Test Readout: relative viability
Numbers only.

{"Compound": "COc1cc(N2CCC(C(N)=O)CC2)ccc1Nc1nc(N)c(Cl)c(Nc2ccccc2S(=O)(=O)C(C)C)n1 [HG-5-88-01] + C[C@@H](Oc1cc(-c2cnn(C3CCNCC3)c2)cnc1N)c1c(Cl)ccc(F)c1Cl [Crizotinib] (partner 1 µM)", "Study System": "EMC-BAC-2", "relative viability": 0.769}
{"Compound": "Clc1ccc(Nc2nnc(Cc3ccncc3)c3ccccc23)cc1 [Vatalanib] + COc1cc2c(Oc3ccc(NC(=O)C4(C(=O)Nc5ccc(F)cc5)CC4)cc3F)ccnc2cc1OCCCN1CCOCC1 [Foretinib] (partner 0.25 µM)", "Study System": "EMC-BAC-2", "relative viability": 1.09}
{"Compound": "C[C@@H]1CN(CC(=O)Nc2ccc3c(c2)Cc2cccc(-c4cc(=O)cc(N5CCOCC5)o4)c2S3)C[C@H](C)O1 + CCNC(=O)c1noc(-c2cc(C(C)C)c(O)cc2O)c1-c1ccc(CN2CCOCC2)cc1 [Luminespib] (partner 0.01 µM)", "Study System": "EMC-BAC-2", "relative viability": 1.08}
{"Compound": "C[C@@H]1CN(CC(=O)Nc2ccc3c(c2)Cc2cccc(-c4cc(=O)cc(N5CCOCC5)o4)c2S3)C[C@H](C)O1 + O=C(c1cc(Cc2n[nH]c(=O)c3ccccc23)ccc1F)N1CCN(C(=O)C2CC2)CC1 [Olaparib] (partner 8 µM)", "Study System": "EMC-BAC-2", "relative viability": 0.513}
{"Compound": "Clc1ccc(Nc2nnc(Cc3ccncc3)c3ccccc23)cc1 [Vatalanib] + O=C(c1cc(Cc2n[nH]c(=O)c3ccccc23)ccc1F)N1CCN(C(=O)C2CC2)CC1 [Olaparib] (partner 8 µM)", "Study System": "EMC-BAC-2", "relative viability": 0.497}
{"Compound": "C[C@@H]1CN(CC(=O)Nc2ccc3c(c2)Cc2cccc(-c4cc(=O)cc(N5CCOCC5)o4)c2S3)C[C@H](C)O1 + NC(=O)Nc1cc(-c2cccc(F)c2)sc1C(=O)N[C@H]1CCCNC1 [AZD7762] (partner 0.2 µM)", "Study System": "EMC-BAC-2", "relative viability": 1.08}
{"Compound": "Clc1ccc(Nc2nnc(Cc3ccncc3)c3ccccc23)cc1 [Vatalanib] + Cc1nc(Nc2ncc(C(=O)Nc3c(C)cccc3Cl)s2)cc(N2CCN(CCO)CC2)n1 [Dasatinib] (partner 0.075 µM)", "Study System": "EMC-BAC-2", "relative viability": 0.355}
{"Compound": "C[C@@H]1CN(CC(=O)Nc2ccc3c(c2)Cc2cccc(-c4cc(=O)cc(N5CCOCC5)o4)c2S3)C[C@H](C)O1 + COc1cccc2cc(-c3nc([C@H]4CC[C@H](C(=O)O)CC4)n4ncnc(N)c34)[nH]c12 [OSI-027] (partner 0.5 µM)", "Study System": "EMC-BAC-2", "relative viability": 0.385}

Next item in the queue.
Problem: Need relative viability, item COc1cc(N2CCC(C(N)=O)CC2)ccc1Nc1nc(N)c(Cl)c(Nc2ccccc2S(=O)(=O)C(C)C)n1 [HG-5-88-01] + O=C(c1cc(Cc2n[nH]c(=O)c3ccccc23)ccc1F)N1CCN(C(=O)C2CC2)CC1 [Olaparib] (partner 8 µM)
Result: 0.615
